Hi there, I'd appreciate the recorded polymyxin IC50 for every entry that follows.
Tested on: S. Typhi WT vs phoP-, polymyxin IC50 shift, OD600 24 h
Assay: polymyxin IC50 shift in S. Typhi, Salmonella typhi, set 2 (AID 2811)
Settings: WT polymyxin IC50 at 150 uM; stronger effect = lower value
Please reply with the bare figure in µM and do not write the unit itself.

Summary for this molecule, O=C1C2=C(Nc3ccccc3SC2c2ccc(I)cc2)c2ccccc21 (stereo unspecified) : polymyxin IC50 is 25.8

Summary for this molecule, CCn1cc(C(=O)O)c(=O)c2cc(F)c(N3CCN(C(=S)Nc4ccccc4C(F)(F)F)CC3)cc21 : polymyxin IC50 is 2.53

Summary for this molecule, COc1ccc(CNC(=S)Nc2ccncc2)cc1 : polymyxin IC50 is 5.14

Summary for this molecule, O=C(Nc1ccc(Br)cc1)N1CCCN(Cc2ccccc2F)C1 : polymyxin IC50 is 7.08

Summary for this molecule, O=C1C2=C(Nc3ccccc3SC2c2ccsc2)c2ccccc21 (stereo unspecified) : polymyxin IC50 is 21.5

Summary for this molecule, COc1cccc(C2Sc3ccccc3NC3=C2C(=O)c2ccccc23)c1 (stereo unspecified) : polymyxin IC50 is 2.58

* * *

System: S. Typhi WT vs phoP-, polymyxin IC50 shift, OD600 24 h
Assay: polymyxin IC50 shift in S. Typhi, Salmonella typhi, set 2 (AID 2811)
Settings: measured here: phoP- strain shift; at 150 µM; stronger effect = lower value
Doc: threshold 2 (exclusive). Items with polymyxin IC50 shift beneath it return MET; others return NOT MET.

Q: Below 2 on polymyxin IC50 shift? Entry COc1ccc(CNC(=S)Nc2ccncc2)cc1
A: MET

Q: Below 2 on polymyxin IC50 shift? Entry O=C(Nc1ccc(Br)cc1)N1CCCN(Cc2ccccc2F)C1
A: MET

Q: Below 2 on polymyxin IC50 shift? Entry O=C1C2=C(Nc3ccccc3SC2c2ccc(I)cc2)c2ccccc21 (stereo unspecified)
A: MET

Q: Below 2 on polymyxin IC50 shift? Entry O=C1C2=C(Nc3ccccc3SC2c2ccsc2)c2ccccc21 (stereo unspecified)
A: NOT MET

Q: Below 2 on polymyxin IC50 shift? Entry CCn1cc(C(=O)O)c(=O)c2cc(F)c(N3CCN(C(=S)Nc4ccccc4C(F)(F)F)CC3)cc21
A: NOT MET

Q: Below 2 on polymyxin IC50 shift? Entry COc1cccc(C2Sc3ccccc3NC3=C2C(=O)c2ccccc23)c1 (stereo unspecified)
A: NOT MET
